tested on: SNB-78; assay: NCI tumour cell line growth inhibition, 48 h
Activity calls are given as the source filed them. Cut-off read from the data, not from the text of the source: active = GI50 up to about 1.1 µM and inactive = higher.
Response enum: y for active, n for inactive

// known answers, use as guide
CN(C)CCNc1c2ccccc2c2c3c(cccc13)C(=O)N(CCN(C)C)C2=O: y
CC(Oc1ccc(OCC2CCCCC2)cc1)C(N)=O (configuration not stated): n
Brc1ccc2c(C3CN[C@@H](c4c[nH]c5cc(Br)ccc45)CN3)c[nH]c2c1 (some centres not stated): n
CC1=C(C)CC2(CCCCC2=O)[S+]([O-])C1 (configuration not stated): n
CC1(C)CC(=O)C(/C(=N/NC(=S)NN)C(=O)Nc2nc3ccc([N+](=O)[O-])cc3s2)C(=O)C1: n

Task item: Which result was noted for this compound in the test: `CN(Cc1ccccc1)C(=NC#N)N(C)Cc1ccccc1`
Reply: n

Task item: Can you check `CC1=CC(C)(C)N=C2SC(c3ccc(N)cc3)=NN12` next?
Reply: n

The reported measurements were obtained from ChEMBL document CHEMBL1201862.
